Data credit: ChEMBL document CHEMBL1201862

tested on: UACC-62; assay: NCI tumour cell line growth inhibition, 48 h
Calls of active or inactive are those of the source. No stated cut-off is given here; in the data, active = GI50 up to about 1.1 µM and inactive = higher.
observable: GI50

CN(C)CCNC(=O)Cn1ccc(=O)c2cc([N+](=O)[O-])ccc21	> 100 µM (inactive)
NC(=O)c1c2c(cc3c(=O)c4ccccc4[nH]c13)CCCC2	> 100 µM (inactive)
O=C(Nc1sccc1S(=O)(=O)c1ccc(Cl)cc1)c1ccc(Cl)cc1Cl	> 62.2 µM (inactive)
O=C(c1ccc(Cl)cc1Cl)C1[C@H]2C(=O)N(c3ccc(Cc4ccc(N5C(=O)[C@@H]6ON(c7ccccc7)C(C(=O)c7ccc(Cl)cc7Cl)[C@@H]6C5=O)cc4)cc3)C(=O)[C@H]2ON1c1ccccc1 (stereo partly specified)	> 50 µM (inactive)
CC(=O)C(CN(Cc1ccccc1)Cc1ccccc1)C(c1ccccc1)c1c(O)c2ccccc2oc1=O (stereo unspecified)	> 100 µM (inactive)
C[C@H]1SC(c2ccc(Cl)cc2Cl)N(NC(=O)c2ccncc2)C1=O (stereo partly specified)	26.2 µM (inactive)

Dear colleague, I am looking for the recorded GI50 of the following molecule: O=C(CC(=O)N1N=C(c2ccccc2)C(/N=N/c2ccc(Cl)cc2)C1=O)Nc1ccccc1Cl (stereo unspecified)
21.6 µM (inactive)

Please answer likewise for CN1C(=O)C(O)CC1c1cccc(F)c1 (stereo unspecified)
> 100 µM (inactive)

Please answer likewise for Nc1sc2c(c1C(=O)c1ccc(Cl)c(Cl)c1)CCCC2
92 µM (inactive)

Please answer likewise for NS(=O)(=O)c1ccc(/N=N/c2nc3nc(O)nc(O)c3[nH]2)cc1
> 100 µM (inactive)

Please answer likewise for CN(C)CCCNC(=O)c1cc(NS(=O)(=O)c2ccc3c(c2)C(=O)c2ccccc2C3=O)cn1C
20.8 µM (inactive)

Please answer likewise for Nc1ncnc2c1ncn2CCCNO
> 100 µM (inactive)

Please answer likewise for Nc1ccc(S(=O)(=O)Nc2cnc3c(Cl)cccc3n2)cc1 [CHLORSULFAQUINOXALINE]
36.7 µM (inactive)

Please answer likewise for Cc1c(O)oc2ccccc2c1=O
> 100 µM (inactive)

Please answer likewise for CCOC(=O)NC(Nc1ccc(C(=O)OCC)cc1)(C(F)(F)F)C(F)(F)F
13.1 µM (inactive)

Please answer likewise for CN(C)c1ccc(/C=C/C=C\c2cc(/C=C/C=C/c3ccc(N(C)C)cc3)[s+]c3ccccc23)cc1.[O-][Cl+3]([O-])([O-])[O-]
28.2 µM (inactive)

Please answer likewise for COC(=O)CC1C[C@H](C#N)N(C(=O)c2ccccc2)C[C@@H]1CC[N+](=O)[O-] (stereo partly specified)
> 100 µM (inactive)

Please answer likewise for COc1ccc2[nH]c3c(c2c1)[C@H](c1ccccc1)C[C@@H]1C(=O)N(c2ccccc2)C(=O)[C@H]31
> 100 µM (inactive)

Please answer likewise for CCOC(=O)c1cn(C)c(=S)n2c1nc1ccccc12
21.8 µM (inactive)

Please answer likewise for O=C(Nc1ccccc1)c1cc(S(=O)(=O)n2ccnc2O)c(S)cc1Cl
> 100 µM (inactive)

Please answer likewise for CCOC(=O)/C(=C\NC(=S)Nc1ccc(Cl)c(Cl)c1)C(=O)c1ccccc1
32.3 µM (inactive)

Please answer likewise for CC1=NN(c2nc(N)nc(CCl)n2)C(C)(C)C1
14.8 µM (inactive)

Please answer likewise for C=CC[C@H](N=C(SC)SC)C(=O)N1C(=O)N(C)[C@@H](C)[C@H]1c1ccccc1
35.1 µM (inactive)

Please answer likewise for COc1ccc(C[N+](C)(C)N)cc1OC
> 100 µM (inactive)

Please answer likewise for COCc1nc2c(OC)c(-c3nc4ccc(N5CCN(C)CC5)nc4[nH]3)cc(OC)c2[nH]1
> 100 µM (inactive)

Please answer likewise for Clc1ccc2c(NC3CCC(N4CCCCC4)CC3)ccnc2c1 (stereo unspecified)
17.9 µM (inactive)

Please answer likewise for N=C(N)n1ncc(Cl)c(Cl)c1=O
2.48 µM (inactive)

Please answer likewise for CN1C=C(C(N)=O)C2CC(O)[C@@](NC(=O)CS(N)(=O)=O)(C(=O)O)C2C1 (stereo partly specified)
2.17 µM (inactive)

Please answer likewise for COc1ccc(C2c3cc(OC)c(OC)cc3C(Cc3ccc([N+](=O)[O-])cc3)C2c2ccc([N+](=O)[O-])cc2)cc1OC (stereo unspecified)
> 100 µM (inactive)

Please answer likewise for COC(=O)C[C@H](CCSC)NC(=O)C[C@H](CCSC)NC(=O)C[C@H](CCSC)NC(=O)OC(C)(C)C
27.9 µM (inactive)

Please answer likewise for COc1ccc2c(C(=O)c3cn(CCN4CCOCC4)c4ccccc34)cccc2c1
> 29.6 µM (inactive)
